test: Fecal excretion in intact Sprague-Dawley rat at 100 mg/kg, po after 168 hrs; type: ADME, organism-based; set-up: dose 100 mg/kg, route oral; settings: faeces, read-out: Activity

compound	dose excreted at 168 h
CC(C)C(N)C(=O)O[C@H]1[C@H](CO)O[C@H](n2ccc(N)nc2=O)[14C@@]1(C)O.Cl.Cl (stereo partly specified)	63.5%

###

assay: Fecal excretion in bile duct cannulated Sprague-Dawley rat at 100 mg/kg, po after 72 hrs; type: ADME, organism-based; set-up: dose 100 mg/kg, route oral; details: faeces, read-out: Activity
value_kind: dose excreted at 72 h (%)

molecule	test_result
CC(C)C(N)C(=O)O[C@H]1[C@H](CO)O[C@H](n2ccc(N)nc2=O)[14C@@]1(C)O.Cl.Cl (stereo partly specified)	65.9
